Biological target: pp70^ZAP (1-259) (Homo sapiens)
Sequence (P43403 1-259): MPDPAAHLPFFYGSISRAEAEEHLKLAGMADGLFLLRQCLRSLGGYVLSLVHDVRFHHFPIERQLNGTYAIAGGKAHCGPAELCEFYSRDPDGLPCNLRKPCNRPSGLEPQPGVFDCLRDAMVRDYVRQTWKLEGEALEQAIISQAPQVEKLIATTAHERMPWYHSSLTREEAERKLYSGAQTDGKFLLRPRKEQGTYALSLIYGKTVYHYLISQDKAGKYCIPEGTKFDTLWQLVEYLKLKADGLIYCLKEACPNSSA
Test: Tandem ZAP competitive binding assay, surface plasmon resonance (BIAcore)
Settings: 10 nM protein; ζ-chain ITAM-1 of human T-cell receptor as ligand; read-out: N,CZap IC-50
Procedure: Binding was measured by competition using surface plasmon resonance (Malmqvist, M. (1993) Current Opinions in Immunology 5, 282-286) as implemented in the BIAcore Biosensor (Pharmacia Biosensor, Piscataway, N.J.). […] Results were compared to binding measured in the absence of competitor and expressed as percent inhibition. IC50values reflect the concentration of inhibitor required to reduce binding by 50%. Specifics of individual assays are described below. […]
pIC50: −log10 of the molar value. Square brackets hold non-standard residues; d marks the D form. Peptide text beside a SMILES is read from it. * marks the point of attachment. Tyr(3,5-(NO2)2) = N[C@@H](Cc1cc([N+](=O)[O-])c(O)c([N+](=O)[O-])c1)C(=O)O; Acetyl(1-naphthyl) = O=C(Cc1cccc2ccccc12)*; Fmoc = O=C(OCC1c2ccccc2-c2ccccc21)*; Hydrocinnamoyl = O=C(CCc1ccccc1)*
Reported values of pIC50 for individual entries
reported-endpoint: pIC50

>  <compound>
CC(C)C[C@H](NC(=O)[C@@H](NC(=O)[C@H](CC(=O)O)NC(=O)[C@H](Cc1cc([N+](=O)[O-])c(O)c([N+](=O)[O-])c1)NC(=O)OCC1c2ccccc2-c2ccccc21)C(C)C)C(N)=O [DVLNH2] (Fmoc-[Tyr(3,5-(NO2)2)]DVL-NH2)

>  <reported-endpoint>
pIC50

>  <result>
< 4.00

$$$$
>  <compound>
CC(C)C[C@H](NC(=O)[C@@H](NC(=O)[C@H](CCC(=O)O)NC(=O)[C@H](Cc1cc([N+](=O)[O-])c(O)c([N+](=O)[O-])c1)NC(=O)CCc1ccccc1)[C@@H](C)O)C(N)=O (Hydrocinnamoyl-[Tyr(3,5-(NO2)2)]ETL-NH2)

>  <reported-endpoint>
pIC50

>  <result>
< 4.00

$$$$
>  <compound>
CC(C)C[C@H](NC(=O)[C@@H](NC(=O)[C@H](CCC(=O)O)NC(=O)[C@H](Cc1cc([N+](=O)[O-])c(O)c([N+](=O)[O-])c1)NC(=O)Cc1cccc2ccccc12)[C@@H](C)O)C(N)=O ({Acetyl(1-naphthyl)}-[Tyr(3,5-(NO2)2)]ETL-NH2)

>  <reported-endpoint>
pIC50

>  <result>
< 4.00

$$$$
